Tested on: C. jejuni 11168-O Δtlp3
Format: cell-based, Campylobacter jejuni
runConditions: attractants
measuredParameter: Reduction in bacterial numbers migrating towards ligand, Δtlp3 compared to wild type (log)
The answer is to be given in log; state only the numeric part.

// worked examples, Reduction in bacterial numbers migrating towards ligand, Δtlp3 compared to wild type included
compound=CC[C@H](C)[C@H](N)C(=O)O numericresult=4
compound=c1ncc2nc[nH]c2n1 numericresult=1
compound=O=C(O)/C=C/C(=O)O numericresult=4

[Q] Give the measured Reduction in bacterial numbers migrating towards ligand, Δtlp3 compared to wild type of O=C(O)CC(O)C(=O)O (centres unmarked) .
[A] 2

[Q] Give the measured Reduction in bacterial numbers migrating towards ligand, Δtlp3 compared to wild type of N[C@@H](CC(=O)O)C(=O)O [Aspartate] .
[A] 3
